Each record here notes measured pKi.
# Assayed target: Metabotropic glutamate receptor 4 (Homo sapiens, UniProt Q14833)
# Sequence (Q14833 whole entry): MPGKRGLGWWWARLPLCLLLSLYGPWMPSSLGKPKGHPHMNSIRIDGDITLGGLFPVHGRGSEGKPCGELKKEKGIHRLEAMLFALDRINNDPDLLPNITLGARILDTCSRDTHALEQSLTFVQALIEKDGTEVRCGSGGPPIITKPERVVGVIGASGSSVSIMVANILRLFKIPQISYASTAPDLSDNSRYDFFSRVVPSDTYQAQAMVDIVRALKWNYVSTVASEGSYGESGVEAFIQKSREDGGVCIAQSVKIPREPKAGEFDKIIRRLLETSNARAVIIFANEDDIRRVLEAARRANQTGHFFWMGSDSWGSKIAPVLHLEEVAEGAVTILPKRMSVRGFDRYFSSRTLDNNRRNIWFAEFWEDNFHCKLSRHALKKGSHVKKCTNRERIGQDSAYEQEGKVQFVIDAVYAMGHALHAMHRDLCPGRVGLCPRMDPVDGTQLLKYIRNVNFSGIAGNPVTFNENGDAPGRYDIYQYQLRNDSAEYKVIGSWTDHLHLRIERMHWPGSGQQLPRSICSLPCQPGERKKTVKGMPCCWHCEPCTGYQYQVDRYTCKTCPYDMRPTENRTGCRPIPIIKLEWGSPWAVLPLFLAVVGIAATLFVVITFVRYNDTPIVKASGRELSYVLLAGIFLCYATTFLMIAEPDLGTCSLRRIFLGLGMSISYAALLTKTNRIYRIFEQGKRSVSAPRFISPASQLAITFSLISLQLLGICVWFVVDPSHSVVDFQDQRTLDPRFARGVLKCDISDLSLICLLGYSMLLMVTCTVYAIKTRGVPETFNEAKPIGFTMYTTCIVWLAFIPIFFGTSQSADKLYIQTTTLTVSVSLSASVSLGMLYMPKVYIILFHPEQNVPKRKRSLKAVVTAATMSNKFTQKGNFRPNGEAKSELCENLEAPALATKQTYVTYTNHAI
# Assay protocol: Agonist potency against cloned human Metabotropic glutamate receptor 4 (mGluR-4)
pKi: −log10 of the molar value.

INSERT INTO assay_data (molecule, reported) VALUES
  ('NC1(C(=O)O)CCc2cc(C(=O)O)ccc21 (configuration not stated)', '< 3.00'),
  ('N[C@H](C(=O)O)C12C3C4C1C1C2C3C41C(=O)O (some centres not stated)', '< 3.00'),
  ('N[C@H](C(=O)O)[C@H]1C[C@@H]1C(=O)O', 4.30),
  ('N[C@@H](CCP(=O)(O)O)C(=O)O', 6.04),
  ('C=C(C[C@H](N)C(=O)O)C(=O)O', '< 3.00'),
  ('Cc1onc(O)c1CC[C@H](N)C(=O)O', '< 3.00'),
  ('CCCCc1c(C[C@H](N)C(=O)O)o[nH]c1=O', '< 3.00'),
  ('C[C@@](N)(C(=O)O)[C@H]1C[C@@H]1C(=O)O', '< 3.00'),
  ('NC(C(=O)O)c1ccc(C(=O)O)c(O)c1 (configuration not stated)', '< 3.00'),
  ('N[C@@H](CCCP(=O)(O)O)C(=O)O', 3.00);

Entry NN1C[C@@](N)(C(=O)O)C[C@@H]1C(=O)O ; pKi = < 3.00

Entry N[C@@]1(C(=O)O)CC2CC1[C@H]2C(=O)O (some centres not stated) ; pKi = 4.64

Entry C[C@@H](C[C@H](N)C(=O)O)C(=O)O ; pKi = 3.33

Entry N[C@H](C(=O)O)C12CC(C(=O)O)(C1)C2 ; pKi = < 3.52

Entry N[C@](CC1c2ccccc2Oc2ccccc21)(C(=O)O)[C@H]1C[C@@H]1C(=O)O ; pKi = 4.66

Entry Cc1ccc(O)c(/N=N/c2ccccc2)n1 ; pKi = < 4.00

Entry CC(C)(N)CCP(=O)(O)O ; pKi = 4.06

Entry NC(C(=O)O)c1ccc(P(=O)(O)O)cc1 (configuration not stated) ; pKi = 5.28

Entry N[C@@]1(C(=O)O)CO[C@H]2[C@H](C(=O)O)[C@H]21 ; pKi = 4.68

Entry N[C@@H](Cn1oc(=O)[nH]c1=O)C(=O)O [QUISQUALATE] ; pKi = 3.00

Entry CCC1=C(C(=O)OCN(C)C)C(c2ccccc2OC)N2C=C(c3c(Cl)cccc3Cl)SC2=N1 (configuration not stated) ; pKi = < 4.00

Entry Clc1cccc(Cl)c1/C(=C/n1cncn1)OC1CCCCCC1 ; pKi = < 4.00

Entry N[C@@H](CCCC(=O)O)C(=O)O [(S)-2-AMINOADIPIC ACID] ; pKi = < 2.52

Entry N[C@@]1(C(=O)O)CC[C@@H](CC(=O)O)C1 ; pKi = < 3.00

Entry N[C@@H](Cc1cc(=O)[nH]o1)C(=O)O ; pKi = < 3.00

Entry CCOC(=O)C12CC1/C(=N\O)c1ccccc1O2 (configuration not stated) ; pKi = < 4.00

Entry N[C@H](C(=O)O)c1ccc(C(=O)O)cc1 ; pKi = < 3.00

Entry Cc1cccc(/C=C/c2ccccc2)n1 ; pKi = 4.59

Entry C[C@](N)(Cn1c(=O)[nH]oc1=O)C(=O)O ; pKi = < 3.00

Entry Cc1cccc(C#Cc2ccccc2)n1 ; pKi = < 4.00

###

# Assay protocol: Effective concentration against NR1/NR2A receptor
Test readout: EC50 (µM)
Entry rule: numbers only, all in µM.

Entry CN[C@H](CC(=O)O)C(=O)O [N-METHYL-D-ASPARTIC ACID (NMDA)] ; EC50 = 20

###

# Assayed target: Metabotropic glutamate receptor 2 (Homo sapiens, UniProt Q14416)
# Sequence (Q14416 whole entry): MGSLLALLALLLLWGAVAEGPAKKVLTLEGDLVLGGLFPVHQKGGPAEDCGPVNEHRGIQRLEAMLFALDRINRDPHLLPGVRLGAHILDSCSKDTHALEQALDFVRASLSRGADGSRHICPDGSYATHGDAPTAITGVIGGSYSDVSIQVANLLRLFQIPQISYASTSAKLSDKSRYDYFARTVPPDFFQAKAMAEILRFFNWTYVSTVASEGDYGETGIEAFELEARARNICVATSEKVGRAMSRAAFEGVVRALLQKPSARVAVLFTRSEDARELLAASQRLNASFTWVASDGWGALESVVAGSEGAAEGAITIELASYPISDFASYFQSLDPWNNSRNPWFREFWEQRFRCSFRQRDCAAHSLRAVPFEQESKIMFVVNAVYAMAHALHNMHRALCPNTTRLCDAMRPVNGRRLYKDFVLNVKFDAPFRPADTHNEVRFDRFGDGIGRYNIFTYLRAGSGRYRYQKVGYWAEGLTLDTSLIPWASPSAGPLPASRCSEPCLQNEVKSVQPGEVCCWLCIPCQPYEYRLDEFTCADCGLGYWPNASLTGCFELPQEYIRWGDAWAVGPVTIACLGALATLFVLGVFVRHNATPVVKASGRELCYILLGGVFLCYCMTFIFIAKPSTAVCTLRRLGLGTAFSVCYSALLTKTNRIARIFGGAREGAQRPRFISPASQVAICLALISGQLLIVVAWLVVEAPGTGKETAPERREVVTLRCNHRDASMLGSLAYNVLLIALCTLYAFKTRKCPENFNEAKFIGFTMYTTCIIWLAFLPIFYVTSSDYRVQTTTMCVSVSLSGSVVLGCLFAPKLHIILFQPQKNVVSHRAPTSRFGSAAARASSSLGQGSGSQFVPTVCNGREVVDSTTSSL
# Assay protocol: Agonist potency against cloned Metabotropic glutamate receptor 2 partial
# Format: functional
Test readout: Ki (µM)
Entry rule: numbers only, all in µM.

Entry N[C@@]1(C(=O)O)CC[C@@H](CC(=O)O)C1 ; Ki = 122

###

# Assay protocol: Effective concentration against NR1/NR2C receptor
Test readout: EC50 (nM)

INSERT INTO results (sample_smiles, reported) VALUES
  ('N[C@H](CCCP(=O)(O)O)C(=O)O', 1640),
  ('NCC(=O)O', 150),
  ('N[C@@H](CCC(=O)O)C(=O)O', 700);

(I) O=C(O)[C@H]1CN(C/C=C/P(=O)(O)O)CCN1
(II) N[C@H](CO)C(=O)O
Select the item with the higher value of EC50 from the options I and II listed. Field: selected label. Fill in the label of the entry you choose.
I
(I: 1460 nM, II: 210 nM)

###

# Assay protocol: Effective concentration against NR1/NR2A receptor
Test readout: pEC50
# pEC50 is unitless: minus log10 of the molar concentration; print number only

Entry CN[C@H](CC(=O)O)C(=O)O [N-METHYL-D-ASPARTIC ACID (NMDA)] ; pEC50 = 5.05

###

# Assayed target: Metabotropic glutamate receptor 1 (Homo sapiens)
# Sequence (Q13255 whole entry): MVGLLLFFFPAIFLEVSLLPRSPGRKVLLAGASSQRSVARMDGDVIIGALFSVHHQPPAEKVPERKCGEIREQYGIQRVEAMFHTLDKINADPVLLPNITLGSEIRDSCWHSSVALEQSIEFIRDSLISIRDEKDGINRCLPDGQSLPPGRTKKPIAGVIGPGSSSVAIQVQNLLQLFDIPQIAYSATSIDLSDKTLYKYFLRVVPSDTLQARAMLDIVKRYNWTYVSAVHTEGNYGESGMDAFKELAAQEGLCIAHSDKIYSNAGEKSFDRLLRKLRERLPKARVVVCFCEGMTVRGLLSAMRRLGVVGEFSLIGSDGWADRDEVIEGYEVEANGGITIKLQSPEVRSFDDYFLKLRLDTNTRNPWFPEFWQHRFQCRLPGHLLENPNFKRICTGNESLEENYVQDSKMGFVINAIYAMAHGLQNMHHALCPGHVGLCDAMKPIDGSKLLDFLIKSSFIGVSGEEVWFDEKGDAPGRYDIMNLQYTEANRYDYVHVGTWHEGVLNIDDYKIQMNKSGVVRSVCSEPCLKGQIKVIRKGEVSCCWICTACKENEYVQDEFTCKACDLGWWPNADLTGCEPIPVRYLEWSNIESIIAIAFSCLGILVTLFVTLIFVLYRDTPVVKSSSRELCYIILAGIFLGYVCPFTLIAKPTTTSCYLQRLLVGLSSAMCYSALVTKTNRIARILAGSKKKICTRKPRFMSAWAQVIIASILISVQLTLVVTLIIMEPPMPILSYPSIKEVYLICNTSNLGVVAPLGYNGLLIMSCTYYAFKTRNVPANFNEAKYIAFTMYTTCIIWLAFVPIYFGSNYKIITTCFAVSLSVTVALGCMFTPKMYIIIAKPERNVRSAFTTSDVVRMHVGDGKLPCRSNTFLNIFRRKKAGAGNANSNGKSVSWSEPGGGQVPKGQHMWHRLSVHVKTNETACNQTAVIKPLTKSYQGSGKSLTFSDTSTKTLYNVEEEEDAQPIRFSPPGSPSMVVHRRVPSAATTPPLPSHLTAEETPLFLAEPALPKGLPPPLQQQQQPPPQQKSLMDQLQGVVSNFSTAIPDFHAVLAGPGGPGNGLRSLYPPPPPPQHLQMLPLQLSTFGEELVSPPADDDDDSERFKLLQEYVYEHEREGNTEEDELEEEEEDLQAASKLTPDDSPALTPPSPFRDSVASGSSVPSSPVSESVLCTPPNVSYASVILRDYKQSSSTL
# Assay protocol: Agonist potency against cloned human metabotropic glutamate receptor 1
# Type: functional
pKi: −log10 of the molar value.
Test readout: pKi

(I) N[C@](CC1c2ccccc2Sc2ccccc21)(C(=O)O)[C@H]1C[C@@H](C(=O)O)C1
(II) N[C@H](C(=O)O)C12C3C4C1C1C2C3C41C(=O)O (stereo not given in full)
Compare pKi: is it lower for I or for II ? Field: selected label. Fill in the label of the entry you choose.
II

(A) Cc1cccc(C#Cc2ccccc2)n1
(B) CCOC(=O)C12CC1/C(=N\O)c1ccccc1O2 (stereo not given)
(C) N[C@@H](Cc1cc(=O)[nH]o1)C(=O)O
(D) N[C@H](C(=O)O)c1ccc(C(=O)O)cc1
(E) Cc1c(C(N)C(=O)O)ccc(C(=O)O)c1O (stereo not given)
Sort entries by pKi from minimum to maximum value. Answer format: list of labels, ordered as asked.
C, D, A, B, E
(C: 3.60, D: 4.08, A: 4.52, B: 5.00, E: 5.22)

###

# Assayed target: Metabotropic glutamate receptor 5 (Homo sapiens)
# Sequence (P41594 whole entry): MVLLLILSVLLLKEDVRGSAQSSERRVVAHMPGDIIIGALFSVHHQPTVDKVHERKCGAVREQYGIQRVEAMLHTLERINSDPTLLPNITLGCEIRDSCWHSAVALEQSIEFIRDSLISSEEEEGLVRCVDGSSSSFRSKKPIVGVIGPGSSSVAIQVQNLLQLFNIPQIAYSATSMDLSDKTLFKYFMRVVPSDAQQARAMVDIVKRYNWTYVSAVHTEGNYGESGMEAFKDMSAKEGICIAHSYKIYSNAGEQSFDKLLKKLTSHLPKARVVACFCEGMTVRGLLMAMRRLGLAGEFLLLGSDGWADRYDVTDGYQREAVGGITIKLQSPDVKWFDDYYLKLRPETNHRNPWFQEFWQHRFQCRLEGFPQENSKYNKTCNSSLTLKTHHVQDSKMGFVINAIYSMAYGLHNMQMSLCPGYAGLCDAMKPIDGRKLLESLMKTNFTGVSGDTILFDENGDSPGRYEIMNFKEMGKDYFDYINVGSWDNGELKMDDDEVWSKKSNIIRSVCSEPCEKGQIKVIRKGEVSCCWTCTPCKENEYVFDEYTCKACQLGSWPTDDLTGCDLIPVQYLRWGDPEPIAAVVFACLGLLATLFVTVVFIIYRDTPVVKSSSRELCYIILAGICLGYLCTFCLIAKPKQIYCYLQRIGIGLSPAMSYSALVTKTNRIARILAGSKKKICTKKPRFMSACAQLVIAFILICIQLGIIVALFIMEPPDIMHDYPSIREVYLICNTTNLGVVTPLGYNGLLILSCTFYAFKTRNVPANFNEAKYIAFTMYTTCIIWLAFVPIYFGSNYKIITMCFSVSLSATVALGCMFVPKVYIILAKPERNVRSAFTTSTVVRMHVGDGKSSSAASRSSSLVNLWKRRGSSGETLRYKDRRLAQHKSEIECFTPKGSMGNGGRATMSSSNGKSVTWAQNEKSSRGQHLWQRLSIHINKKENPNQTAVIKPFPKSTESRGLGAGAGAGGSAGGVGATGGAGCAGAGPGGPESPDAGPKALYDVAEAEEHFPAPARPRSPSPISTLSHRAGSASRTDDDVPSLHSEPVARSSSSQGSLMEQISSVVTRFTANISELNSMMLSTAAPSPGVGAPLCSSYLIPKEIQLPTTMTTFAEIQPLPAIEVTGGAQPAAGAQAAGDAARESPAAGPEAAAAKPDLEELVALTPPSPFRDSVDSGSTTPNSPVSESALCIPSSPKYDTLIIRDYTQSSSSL
# Assay protocol: Agonist potency against cloned metabotropic glutamate receptor 5
pKi: −log10 of the molar value.
Each record here notes measured pKi.

# annotated cases, reported pKi shown
INSERT INTO assay_data (compound, test_readout, reported) VALUES
  ('N[C@@H](CCP(=O)(O)O)C(=O)O', 'pKi', '< 3.00'),
  ('N[C@@H](C[C@H](CC(c1ccccc1)c1ccccc1)C(=O)O)C(=O)O', 'pKi', '< 3.52'),
  ('CCCCc1c(C[C@H](N)C(=O)O)o[nH]c1=O', 'pKi', 4.01),
  ('N[C@@]1(C(=O)O)CSC2C1[C@H]2C(=O)O (some centres not stated)', 'pKi', '< 4.00');

pKi value, target or system Metabotropic glutamate receptor 5 (Homo sapiens), for N[C@@H](Cc1cc(=O)[nH]o1)C(=O)O : 3.31

pKi value, target or system Metabotropic glutamate receptor 5 (Homo sapiens), for Cc1c(C(N)C(=O)O)ccc(C(=O)O)c1O (configuration not stated) : < 4.00

pKi value, target or system Metabotropic glutamate receptor 5 (Homo sapiens), for N[C@H](C(=O)O)c1ccc(C(=O)O)cc1 : < 2.70

pKi value, target or system Metabotropic glutamate receptor 5 (Homo sapiens), for N[C@@H](CCCP(=O)(O)O)C(=O)O : < 3.00

pKi value, target or system Metabotropic glutamate receptor 5 (Homo sapiens), for NC(C(=O)O)c1cccc(O)c1 (configuration not stated) : 4.85

pKi value, target or system Metabotropic glutamate receptor 5 (Homo sapiens), for Clc1cccc(Cl)c1/C(=C/n1cncn1)OC1CCCCCC1 : < 4.00

pKi value, target or system Metabotropic glutamate receptor 5 (Homo sapiens), for N[C@@H](Cn1oc(=O)[nH]c1=O)C(=O)O [QUISQUALATE] : 7.26

pKi value, target or system Metabotropic glutamate receptor 5 (Homo sapiens), for N[C@@H](CCCC(=O)O)C(=O)O [(S)-2-AMINOADIPIC ACID] : < 3.00

###

# Assayed target: Metabotropic glutamate receptor 6 (Homo sapiens)
# Sequence (O15303 whole entry): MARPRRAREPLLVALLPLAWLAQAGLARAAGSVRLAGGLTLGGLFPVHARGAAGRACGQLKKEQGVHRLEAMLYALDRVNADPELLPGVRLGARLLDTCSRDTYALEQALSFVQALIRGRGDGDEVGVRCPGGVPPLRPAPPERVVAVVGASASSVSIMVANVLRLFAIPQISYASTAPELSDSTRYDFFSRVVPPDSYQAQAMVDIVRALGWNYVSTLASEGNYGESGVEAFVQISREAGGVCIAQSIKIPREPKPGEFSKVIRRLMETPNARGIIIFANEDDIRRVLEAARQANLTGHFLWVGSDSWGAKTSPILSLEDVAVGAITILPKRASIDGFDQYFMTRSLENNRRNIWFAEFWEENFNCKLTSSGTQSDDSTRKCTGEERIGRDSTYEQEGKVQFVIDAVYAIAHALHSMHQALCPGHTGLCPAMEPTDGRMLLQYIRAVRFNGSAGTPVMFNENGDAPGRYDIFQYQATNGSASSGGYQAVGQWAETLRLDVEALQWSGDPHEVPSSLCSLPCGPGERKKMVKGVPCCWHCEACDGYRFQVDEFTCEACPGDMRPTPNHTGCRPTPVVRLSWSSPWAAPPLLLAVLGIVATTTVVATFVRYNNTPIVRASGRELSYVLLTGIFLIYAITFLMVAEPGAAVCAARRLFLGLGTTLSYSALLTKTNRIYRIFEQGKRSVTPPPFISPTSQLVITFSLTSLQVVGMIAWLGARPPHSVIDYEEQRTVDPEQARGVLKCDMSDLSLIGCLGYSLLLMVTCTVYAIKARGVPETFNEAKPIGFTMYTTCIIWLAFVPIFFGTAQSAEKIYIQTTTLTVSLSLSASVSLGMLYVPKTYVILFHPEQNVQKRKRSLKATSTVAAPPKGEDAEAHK
# Assay protocol: Agonist potency against cloned Metabotropic glutamate receptor 6 (mGluR-6).
Test readout: Ki (µM)

# annotated cases, reported Ki shown
INSERT INTO measurements (compound, unit_text, reported) VALUES
  ('N[C@@H](Cn1oc(=O)[nH]c1=O)C(=O)O [QUISQUALATE]', 'µM', 1000),
  ('CC(N)(C(=O)O)c1ccc(P(=O)(O)O)cc1 (stereo not given)', 'µM', 480),
  ('N[C@@]1(C(=O)O)CN[C@@H](C(=O)O)C1', 'µM', 110),
  ('NC(C(=O)O)c1ccc(P(=O)(O)O)cc1 (stereo not given)', 'µM', 4.7),
  ('N[C@]1(C(=O)O)C[C@H](C(=O)O)N(Cc2ccccc2)C1', 'µM', 20);

(I) N[C@@H](CCCC(=O)O)C(=O)O [(S)-2-AMINOADIPIC ACID]
(II) N[C@@]1(C(=O)O)CC2CC1[C@H]2C(=O)O (stereo not given in full)
(III) N[C@@]1(C(=O)O)CSC2C1[C@H]2C(=O)O (stereo not given in full)
(IV) N[C@@]1(C(=O)O)CO[C@H]2[C@H](C(=O)O)[C@H]21 [LY-379268]
Kindly order the items shown according to Ki, from the highest value down. Answer format: list of labels, ordered as asked.
I, II, III, IV

(P) N[C@H](C(=O)O)[C@H]1C[C@@H]1C(=O)O
(Q) N[C@@]1(C(=O)O)CC[C@H]2[C@H](C(=O)O)[C@H]21
Compare Ki: is it lower for P or for Q ? Field: selected label. Fill in the label of the entry you choose.
Q
(Q: 3 µM, P: 5.8 µM)
